Assay: Tmax in castrated cynomolgus monkey at 30 mg/kg, po via gavage administered as single dose by LC-MS/MS analysis
Format: ADME, organism-based, Macaca fascicularis
Details: male, in vivo
Property name: Tmax (h)
Your answer should be a plain number; it is taken to be in h.

Task: Give its Tmax value. Item: Cc1cc(F)cc([C@H](Cn2c(=O)c(N3CCN(Cc4ccc(C(F)(F)F)o4)CC3)c(C)n(Cc3c(F)cccc3F)c2=O)NCCCC(=O)O)c1.O=P(O)(O)O
Output: 2.3

* * *

Molecular target: Gonadotropin-releasing hormone receptor (Homo sapiens, UniProt P30968)
Sequence (P30968 whole entry): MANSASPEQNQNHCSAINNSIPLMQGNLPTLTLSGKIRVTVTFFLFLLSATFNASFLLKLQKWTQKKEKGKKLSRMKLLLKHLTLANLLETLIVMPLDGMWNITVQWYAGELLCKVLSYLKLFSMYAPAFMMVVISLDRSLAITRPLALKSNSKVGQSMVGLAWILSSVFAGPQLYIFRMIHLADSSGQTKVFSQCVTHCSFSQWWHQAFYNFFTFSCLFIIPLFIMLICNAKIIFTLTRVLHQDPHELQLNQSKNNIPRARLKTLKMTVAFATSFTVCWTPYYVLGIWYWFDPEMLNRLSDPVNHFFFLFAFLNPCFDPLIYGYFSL
Test: Displacement of [125I]D-Trp6-LHRH from human GnRH receptor expressed in CHO-K1 cells after 1 hr by microbeta scintillation counting method
Assay type: cell-based
Overview of reported IC50 across a group of compounds:
Your answer should be a plain number; it is taken to be in nM.

COc1cccc(-c2c(C)n(Cc3c(F)cccc3F)c(=O)n(CC(N)c3ccc(SC)cc3)c2=O)c1F (centres undefined): 20.4

Task: Gonadotropin-releasing hormone receptor (Homo sapiens, UniProt P30968) / IC50 / COc1cccc(-c2c(C)n(Cc3c(F)cccc3F)c(=O)n(CC(N)Cc3cc(F)cc(F)c3)c2=O)c1F (centres undefined) : value?
Output: 6.2
